# assayed_target: hKOR (Homo sapiens)
# Sequence (P41145 whole entry): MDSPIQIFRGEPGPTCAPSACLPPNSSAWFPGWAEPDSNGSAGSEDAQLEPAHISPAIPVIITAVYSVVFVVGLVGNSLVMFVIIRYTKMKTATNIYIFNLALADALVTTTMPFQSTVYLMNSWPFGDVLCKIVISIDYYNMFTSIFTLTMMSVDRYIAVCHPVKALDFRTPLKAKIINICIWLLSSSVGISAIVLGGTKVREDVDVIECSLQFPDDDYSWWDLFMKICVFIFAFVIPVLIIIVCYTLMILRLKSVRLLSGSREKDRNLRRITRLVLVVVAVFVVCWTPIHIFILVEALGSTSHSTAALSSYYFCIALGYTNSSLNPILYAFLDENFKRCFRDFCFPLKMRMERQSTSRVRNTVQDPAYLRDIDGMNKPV
# Sequence (P32121 whole entry partner): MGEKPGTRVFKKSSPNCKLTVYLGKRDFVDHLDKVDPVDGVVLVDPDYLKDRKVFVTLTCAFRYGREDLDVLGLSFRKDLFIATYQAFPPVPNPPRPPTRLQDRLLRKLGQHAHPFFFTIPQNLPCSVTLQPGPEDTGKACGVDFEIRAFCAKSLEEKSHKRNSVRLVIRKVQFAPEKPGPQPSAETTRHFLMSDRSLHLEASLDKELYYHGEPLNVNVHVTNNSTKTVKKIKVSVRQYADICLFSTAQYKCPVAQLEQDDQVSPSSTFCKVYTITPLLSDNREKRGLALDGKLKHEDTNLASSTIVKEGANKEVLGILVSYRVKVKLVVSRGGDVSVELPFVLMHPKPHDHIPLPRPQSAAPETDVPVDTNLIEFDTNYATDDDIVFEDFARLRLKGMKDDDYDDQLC
# measurement_description: cell-based
recorded_endpoint: EC50

Fill in the blank: the reported EC50 of "COC(=O)[C@@H]1C[C@H](OS(C)(=O)=O)C(=O)[C@H]2[C@@]1(C)CC[C@H]1C(=O)O[C@H](c3ccoc3)C[C@]21C" is ____.
236 nM

* * *

# assayed_target: KOPr (Homo sapiens, UniProt P41145)
# Sequence (P41145 whole entry): as the sequence (P41145 whole entry) above
# measurement_description: cell-based
recorded_endpoint: EC50
Param answer (str): number followed by unit.

Fill in the blank: the reported EC50 of "COC(=O)[C@@H]1C[C@H](OS(C)(=O)=O)C(=O)[C@H]2[C@@]1(C)CC[C@H]1C(=O)O[C@H](c3ccoc3)C[C@]21C" is ____.
0.12 nM
